# tested-target: recombinant human NPY Y2 receptors (Homo sapiens)
# Construct: expressed in transfected cells; host or cells: CHO-C4 cells (membrane preparation)
# Sequence (P49146 whole entry): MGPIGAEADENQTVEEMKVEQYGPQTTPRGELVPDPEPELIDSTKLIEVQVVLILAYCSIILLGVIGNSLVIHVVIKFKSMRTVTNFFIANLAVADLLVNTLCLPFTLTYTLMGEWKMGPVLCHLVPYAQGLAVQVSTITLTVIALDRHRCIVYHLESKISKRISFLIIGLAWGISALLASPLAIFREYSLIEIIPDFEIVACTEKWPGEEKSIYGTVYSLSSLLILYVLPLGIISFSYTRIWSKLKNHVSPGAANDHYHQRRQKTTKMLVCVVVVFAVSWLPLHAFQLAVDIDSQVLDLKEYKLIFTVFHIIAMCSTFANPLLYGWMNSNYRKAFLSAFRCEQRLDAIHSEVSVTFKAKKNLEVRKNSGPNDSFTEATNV
# test-method-notes: Scintillation proximity [35S]GTPγS binding assay (inhibition of 0.5 nM NPY-stimulated [35S]GTPγS binding)
# Format: biochemical
# experimental-context: 10 μM compound, membranes from CHO-C4 cells expressing recombinant human NPY Y2 receptors, read-out: [%] inhibiton at 10 μM
Where inhibition at 10 µM equals or exceeds 90%, the correct label is Y; where it does not, the label is N.

In [3]: df
Out[3]:
                                   molecule  label
0  CCC(CC)Nc1nc2cc(N3CCN(C(c4ccccc4)c4ccccc4)CC3)c(F)cc2[nH]1      N
1  CCC(CC)C(=O)Nc1ccc(N2CCC(C(c3ccccn3)c3ccccn3)CC2)c(F)c1      Y
2  Cc1noc(C)c1NC(=O)Nc1ccc(N2CCN(C(c3ccc(F)cc3)c3ccc(F)cc3)CC2)c(F)c1      N
3  O=C(Nc1ccc(N2CCC(C(c3ccccc3)c3ccccc3)CC2)c(F)c1)C1CCOC1 (stereo not drawn)      N

====

The entries below are paired with their reported inhibition at 10 µM.
# tested-target: recombinant human NPY Y2 receptors (Homo sapiens)
# Construct: expressed in transfected cells; host or cells: CHO-C4 cells (membrane preparation)
# test-method-notes: Scintillation proximity [35S]GTPγS binding assay (inhibition of 0.5 nM NPY-stimulated [35S]GTPγS binding)
# Format: biochemical
# experimental-context: 10 μM compound, membranes from CHO-C4 cells expressing recombinant human NPY Y2 receptors, read-out: [%] inhibiton at 10 μM
measured-endpoint: inhibition at 10 µM (%)

In [3]: df
Out[3]:
                                    molecule    measured_endpoint  value_unit  quantitative_result
 0  N#Cc1cc(NC(=O)C2CCOC2)ccc1N1CCC(C(c2ccccc2)c2ccccc2)CC1 (stereo not shown)  inhibition at 10 µM           %                   90
 1  Cn1cccc1C(=O)Nc1ccc(N2CCN(C(c3ccccc3)c3ccccc3)CC2)c(F)c1  inhibition at 10 µM           %                   62
 2  CCC(CC)C(=O)Nc1ccc(N2CCC(C(c3ccccc3)c3ccccc3)CC2)c(C#N)c1  inhibition at 10 µM           %                   86
 3  Cn1nccc1C(=O)Nc1ccc(N2CCN(C(c3ccccc3)c3ccccc3)CC2)c(F)c1  inhibition at 10 µM           %                   65
 4  Cc1noc(C)c1-c1nc2cc(N3CCN(C(c4ccccc4)c4ccccc4)CC3)c(F)cc2[nH]1  inhibition at 10 µM           %                   44
 5  CCC(CC)c1nc2cc(N3CCN(C(c4ccccc4)c4ccccc4)CC3)c(F)cc2[nH]1  inhibition at 10 µM           %                   82
 6  Cc1noc(C)c1NC(=O)Nc1ccc(N2CCN(C(c3ccc(F)cc3)c3ccc(F)cc3)CC2)c(C#N)c1  inhibition at 10 µM           %                   87
 7  O=C(Nc1ccc(N2CCN(C(c3ccccc3)c3ccccc3)CC2)c(F)c1)C1CCOC1 (stereo not shown)  inhibition at 10 µM           %                   85
 8  Fc1cc2[nH]c(C3CCOC3)nc2cc1N1CCN(C(c2ccccc2)c2ccccc2)CC1 (stereo not shown)  inhibition at 10 µM           %                   53
 9  Cc1ncccc1C(=O)Nc1ccc(N2CCN(C(c3ccccc3)c3ccccc3)CC2)c(F)c1  inhibition at 10 µM           %                   85
10  Cc1noc(C)c1NC(=O)Nc1ccc(N2CCN(C(c3ccccc3)c3ccccc3)CC2)c(F)c1  inhibition at 10 µM           %                   89
11  CCC(CC)C(=O)Nc1ccc(N2CCN(C(c3ccccc3)c3ccccc3)CC2)c(C#N)c1  inhibition at 10 µM           %                   88
12  Cc1noc(C)c1Nc1nc2cc(N3CCN(C(c4ccccc4)c4ccccc4)CC3)c(F)cc2[nH]1  inhibition at 10 µM           %                   71
13  CCC(CC)C(=O)Nc1ccc(N2CCC(C(c3ccccc3)c3ccccc3)CC2)c(F)c1  inhibition at 10 µM           %                   85
14  Cc1noc(C)c1NC(=O)Nc1ccc(N2CCN(C(c3ccccc3)c3ccccc3)CC2)c(C#N)c1  inhibition at 10 µM           %                   95
15  Cc1noc(C)c1C(=O)Nc1ccc(N2CCN(C(c3ccccc3)c3ccccc3)CC2)c(F)c1  inhibition at 10 µM           %                   85

These entries and their values trace back to patent US20090099199A1.
